System: DMPK
Experiment: DMPK knockdown by transfected antisense oligonucleotides in DM1 C15 myotubes at 0.5 nM and 50 nM
Assay type: cell-based
Conditions: 50 nM oligonucleotide, 72 hours
Measured Percent DMPK Reduction, listed per entry for reference.
Report the value in % with no unit label.

Example cases with answers are listed next.
>  <Substance>
481 (GGGAAAGCGCCUCCGAUAGG; chemistry not given here) [compound 481]

>  <Tgt>
DMPK

>  <Test Readout>
Percent DMPK Reduction

>  <Data Value>
76.79

$$$$
>  <Substance>
442 (AUGUUGUCGGGUUUGAUGUC; chemistry not given here) [compound 442]

>  <Tgt>
DMPK

>  <Test Readout>
Percent DMPK Reduction

>  <Data Value>
52.83

$$$$
>  <Substance>
474 (AGUCGGCCAGGCGGAUGUGG; chemistry not given here) [compound 474]

>  <Tgt>
DMPK

>  <Test Readout>
Percent DMPK Reduction

>  <Data Value>
67.44

$$$$

// next item, Percent DMPK Reduction requested
Noted for 423 (GGCUCAGGCUCUGCCGGGUG; chemistry not given here) [compound 423] : its Percent DMPK Reduction reads 65.82

---

System: DMPK
Test: DMPK knockdown by transfected antisense oligonucleotides in DM1 C15 myotubes at 0.5 nM and 50 nM
Assay type: cell-based
Settings: 0.5 nM oligonucleotide, 72 hours, relative to vehicle control = 1.00
Method: Two hundred and thirty-six oligonucleotides for targeting DMPK were generated using in silico analysis. Each individual oligonucleotide was evaluated for their ability to target DMPK in cellulo at two doses—0.5 nM (low dose) and 50 nM (high dose). Briefly, DM1 C15 immortalized myoblasts were cultured in T-75 flasks until near confluency (˜80% confluent). Myoblasts were then disrupted with trypsin and seeded into 96-well microplates at a density of 50,000 cells/well. […]
Please note: 1 (yes) applies when Normalized DMPK Remaining is 0.8 or greater, and 0 (no) applies otherwise.

>  <Substance>
409 (GGCUUGCUGCCUUCCCAGGC; chemistry not given here) [compound 409]

>  <Classification>
1 (yes)

$$$$
>  <Substance>
473 (CUUGUAGUGGACGAUCUUGC; chemistry not given here) [compound 473]

>  <Classification>
0 (no)

$$$$
>  <Substance>
383 (CGGGCCCGGAUCACAGGACU; chemistry not given here) [compound 383]

>  <Classification>
1 (yes)

$$$$

# check: Normalized DMPK Remaining of 393 (UUGGCCGGCGUGGGCCACCA; chemistry not given here) [compound 393] is greater than or equal to 0.8
1 (yes)

---

Test system: DMPK
Test: DMPK knockdown by transfected antisense oligonucleotides in DM1 C15 myotubes at 0.5 nM and 50 nM
Format: cell-based
Details: 50 nM oligonucleotide, 72 hours, relative to vehicle control = 1.00
Rule: Normalized DMPK Remaining below 0.5 gives true. Equal to or above 0.5 gives false.

Given 397 (GGACAGACAAUAAAUACCGA; chemistry not given here) [compound 397] , is recorded Normalized DMPK Remaining strictly lower than 0.5?
true

Given 394 (GAGCCUCUGCCUCGCGUAGU; chemistry not given here) [compound 394] , is recorded Normalized DMPK Remaining strictly lower than 0.5?
true

Given 409 (GGCUUGCUGCCUUCCCAGGC; chemistry not given here) [compound 409] , is recorded Normalized DMPK Remaining strictly lower than 0.5?
false

Given 431 (GGAGCAGGGAAAGCGCCUCC; chemistry not given here) [compound 431] , is recorded Normalized DMPK Remaining strictly lower than 0.5?
true

Given 480 (AGGGAAAGCGCCUCCGAUAG; chemistry not given here) [compound 480] , is recorded Normalized DMPK Remaining strictly lower than 0.5?
true

Given 406 (ACAGGUAGUUCUCAUCCUGG; chemistry not given here) [compound 406] , is recorded Normalized DMPK Remaining strictly lower than 0.5?
true

Given 459 (GCUUGCUGCCUUCCCAGGCC; chemistry not given here) [compound 459] , is recorded Normalized DMPK Remaining strictly lower than 0.5?
true

Given 385 (GUUGGCCGGCGUGGGCCACC; chemistry not given here) [compound 385] , is recorded Normalized DMPK Remaining strictly lower than 0.5?
false

Given 414 (UAGAACAUUUCAUAGGCGAA; chemistry not given here) [compound 414] , is recorded Normalized DMPK Remaining strictly lower than 0.5?
false

Given 434 (UUUCAUAGGCGAAUACACCC; chemistry not given here) [compound 434] , is recorded Normalized DMPK Remaining strictly lower than 0.5?
true

Given 472 (AAGGGAUGUGUCCGGAAGUC; chemistry not given here) [compound 472] , is recorded Normalized DMPK Remaining strictly lower than 0.5?
true

Given 439 (CACCAACACGUCCCUCUCCU; chemistry not given here) [compound 439] , is recorded Normalized DMPK Remaining strictly lower than 0.5?
true

Given 391 (UCACCAACACGUCCCUCUCC; chemistry not given here) [compound 391] , is recorded Normalized DMPK Remaining strictly lower than 0.5?
true

Given 408 (UCGGGUUUGAUGUCCCUGUG; chemistry not given here) [compound 408] , is recorded Normalized DMPK Remaining strictly lower than 0.5?
true

Given 447 (CAUCCAAAACGUGGAUUGGG; chemistry not given here) [compound 447] , is recorded Normalized DMPK Remaining strictly lower than 0.5?
true

Given 471 (UCGGCCAGGCGGAUGUGGCC; chemistry not given here) [compound 471] , is recorded Normalized DMPK Remaining strictly lower than 0.5?
true

Given 451 (CAGGAUGUUGUCGGGUUUGA; chemistry not given here) [compound 451] , is recorded Normalized DMPK Remaining strictly lower than 0.5?
true

Given 476 (AGCGUCACCUCGGCCUCAGC; chemistry not given here) [compound 476] , is recorded Normalized DMPK Remaining strictly lower than 0.5?
true

---

Test system: DMPK
Assay: DMPK knockdown by transfected antisense oligonucleotides in DM1 C15 myotubes at 0.5 nM and 50 nM
Type: cell-based
Settings: 50 nM oligonucleotide, 72 hours, relative to vehicle control = 1.00
Test Readout: Normalized DMPK Remaining
# print the numeric value only

>  <Substance>
405 (CUUUGGGCAGAUGGAGGGCC; chemistry not given here) [compound 405]

>  <Data Value>
0.33

$$$$
>  <Substance>
468 (CGAGAGCAGCGCAAGUGAGG; chemistry not given here) [compound 468]

>  <Data Value>
0.63

$$$$
>  <Substance>
388 (UGGAACACGGACGGCCCGGC; chemistry not given here) [compound 388]

>  <Data Value>
0.39

$$$$

// next item, Normalized DMPK Remaining requested
Noted for 426 (CTGCAGUUUGCCCAUCCACG; chemistry not given here) [compound 426] : its Normalized DMPK Remaining reads 0.40

---

Tested on: DMPK
Experiment: DMPK knockdown by transfected antisense oligonucleotides in DM1 C15 myotubes at 0.5 nM and 50 nM
Type: cell-based
Details: 50 nM oligonucleotide, 72 hours, relative to vehicle control = 1.00
Test Readout: Normalized DMPK Remaining

Example cases with answers are listed next.
>  <Substance>
416 (GCCUCGCGUAGUUGACUGGC; chemistry not given here) [compound 416]

>  <Normalized DMPK Remaining>
0.09

$$$$
>  <Substance>
398 (ACGUGUGCCUCUAGGUCCCG; chemistry not given here) [compound 398]

>  <Normalized DMPK Remaining>
0.22

$$$$

// next item, Normalized DMPK Remaining requested
Noted for 430 (GUCUAUGGCCAUGACAAUCU; chemistry not given here) [compound 430] : its Normalized DMPK Remaining reads 0.27

---

Tested on: DMPK
Test: DMPK knockdown by transfected antisense oligonucleotides in DM1 C15 myotubes at 0.5 nM and 50 nM
Assay type: cell-based
Details: 0.5 nM oligonucleotide, 72 hours, qPCR, relative to vehicle control = 1.00
Test Readout: Normalized DMPK Remaining
# print the numeric value only

>  <Substance>
364 (AGCGCCCACCAGUCACACUC; chemistry not given here) [compound 364]

>  <Normalized DMPK Remaining>
0.70

$$$$
>  <Substance>
294 (CGUUCCAUCUGCCCGCAGCU; chemistry not given here) [compound 294]

>  <Normalized DMPK Remaining>
0.66

$$$$
>  <Substance>
269 (CUGUCCCGGAGACCAUCCCA; chemistry not given here) [compound 269]

>  <Normalized DMPK Remaining>
0.64

$$$$

// next item, Normalized DMPK Remaining requested
Noted for 286 (GCUUCAUCUUCACUACCGCU; chemistry not given here) [compound 286] : its Normalized DMPK Remaining reads 0.69

---

Tested on: DMPK
Assay: DMPK knockdown by transfected antisense oligonucleotides in DM1 C15 myotubes at 0.5 nM and 50 nM
Format: cell-based
Details: 0.5 nM oligonucleotide, 72 hours, qPCR, relative to vehicle control = 1.00
Test Readout: Normalized DMPK Remaining

>  <Substance>
293 (GAAUGUCCGACAGUGUCUCC; chemistry not given here) [compound 293]

>  <Normalized DMPK Remaining>
0.70

$$$$
>  <Substance>
346 (GACAGAACAACGGCGAACAG; chemistry not given here) [compound 346]

>  <Normalized DMPK Remaining>
0.79

$$$$
>  <Substance>
338 (CGGACGGCCCGGCUUGCUGC; chemistry not given here) [compound 338]

>  <Normalized DMPK Remaining>
0.95

$$$$

Form: item 325 (GGUAGUUCUCAUCCUGGAAG; chemistry not given here) [compound 325] ; test system DMPK; Normalized DMPK Remaining: 0.75

Form: item 308 (UGACAAUCUCCGCCAGGUAG; chemistry not given here) [compound 308] ; test system DMPK; Normalized DMPK Remaining: 0.61

Form: item 374 (CCGCUCCCCAAACUUGCUCA; chemistry not given here) [compound 374] ; test system DMPK; Normalized DMPK Remaining: 1.00

Form: item 323 (UUGAUGUCCCUGUGCACGUA; chemistry not given here) [compound 323] ; test system DMPK; Normalized DMPK Remaining: 0.74

Form: item 354 (AGACAAUAAAUACCGAGGAA; chemistry not given here) [compound 354] ; test system DMPK; Normalized DMPK Remaining: 0.71
